Hi there, I'd appreciate the recorded Raw Signal for every entry that follows.
- targetOrSystem: Human IP6K1 (Homo sapiens, UniProt Q92551)
- Construct: GST (N, cleaved yes); made in house; host or cells: C43 E. coli, pGEX-6P-2
- Sequence (Q92551 whole entry): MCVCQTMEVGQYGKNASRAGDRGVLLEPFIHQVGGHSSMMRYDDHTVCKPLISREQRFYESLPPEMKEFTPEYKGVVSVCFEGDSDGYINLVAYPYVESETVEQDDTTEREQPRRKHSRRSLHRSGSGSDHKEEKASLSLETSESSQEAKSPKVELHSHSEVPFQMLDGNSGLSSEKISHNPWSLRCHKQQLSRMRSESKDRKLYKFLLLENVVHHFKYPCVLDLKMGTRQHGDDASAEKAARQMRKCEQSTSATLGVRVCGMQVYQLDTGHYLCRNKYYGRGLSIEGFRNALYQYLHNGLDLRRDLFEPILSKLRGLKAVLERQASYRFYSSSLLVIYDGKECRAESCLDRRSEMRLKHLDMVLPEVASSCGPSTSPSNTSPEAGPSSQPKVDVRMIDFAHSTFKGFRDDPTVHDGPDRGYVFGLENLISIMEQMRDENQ
- protocol: IP6K1 high-throughput screen of the Sigma LOPAC (ADP-Glo Max, single point);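 further: final compound concentration 10µM in 5% DMSO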
- Assay type: biochemical
- particulars: LOPAC single-point screen, ADP-Glo Max raw signal per well
Structures can show the parent of a compound that is named as a salt.

Take a look at these entries with their results.
O=C(CCCN1CCC(O)(c2cccc(C(F)(F)F)c2)CC1)c1ccc(F)cc1 [Trifluperidol hydrochloride] | 56876
Cc1cc(C)c(NC(=O)C[C@H](CC(=O)O)c2cccc3ccccc23)c(C(=O)N2CCC3(CCCC3)CC2)c1 | 55023

For each entry beneath this line, provide reported Raw Signal.
1. COc1ccc2c(c1)[C@@]13CCCC[C@H]1[C@@H](C2)NCC3.Cl [3-Methoxy-morphanin hydrochloride]
2. C/C(=C\c1ccc(C(=O)O)cc1)c1ccc2c(c1)C(C)(C)CCC2(C)C
3. CN1CCc2cc(Cl)c(O)cc2[C@@H](c2ccccc2)C1.Cl [R(+)-SCH-23390 hydrochloride]
4. N[C@@H](CC(=O)O)C(=O)O

*A*
[54071, 53849, 55189, 58223]

Hi! Can you tell me Raw Signal for each of these compounds?
1. Cl.O=C(O)Cc1c[nH]cn1 [Imidazole-4-acetic acid hydrochloride]
2. CCC(=O)c1ccc2c(c1)N(CCCN(C)C)c1ccccc1S2 [Propionylpromazine hydrochloride]
3. CC(C)C[C@H](NC(=O)[C@H](O)[C@H](N)Cc1ccccc1)C(=O)O [Epibestatin hydrochloride]
4. N[C@@H](Cn1ccc(=O)[nH]c1=O)C(=O)O [S(-)-Willardiine]
5. Clc1ccc(C(c2ccc(Cl)cc2)n2cc[n+](CC(OCc3ccc(Cl)cc3Cl)c3ccc(Cl)cc3Cl)c2)cc1 (centres unmarked) [Calmidazolium chloride]

*A*
55616
56049
58771
55281
57343

Please state Raw Signal for every compound in the list that follows.
1. N#Cc1cc2nc([O-])c([O-])nc2cc1[N+](=O)[O-].[Na+].[Na+] [CNQX disodium]
2. CCN(CC)CCCCCCCCOC(=O)c1cc(OC)c(OC)c(OC)c1.Cl [TMB-8 hydrochloride]

*A*
[53180, 59541]

Here are 3 compounds. What values of Raw Signal were reported for them?
1. N#C/C(=C\c1c[nH]c2ccccc12)C(=O)c1ccc(O)c(O)c1
2. COc1ccc(CCCOC(Cn2ccnc2)c2ccc(OC)cc2)cc1 (centres unmarked)
3. N#Cc1c(-c2ccccc2)no[n+]1[O-]

*A*
1. 55945
2. 56420
3. 53966

*Q* Give the measured Raw Signal of `Br.C[N+](C)(C)CCCCCNCC12CC3CC(CC(C3)C1)C2.[Br-]` .
*A* 53178

The reported measurements were obtained from paper PMC5706701.
